Target: T1, His-tagged human HtrA1 protease domain (human, UniProt Q92743 161-367)
T1 construct: His-tagged protease domain; also called huHtrA1-PD-His; huHtrA1-PD
T1 sequence (Q92743 other isoform, or with tags, fused parts or gaps limits assumed): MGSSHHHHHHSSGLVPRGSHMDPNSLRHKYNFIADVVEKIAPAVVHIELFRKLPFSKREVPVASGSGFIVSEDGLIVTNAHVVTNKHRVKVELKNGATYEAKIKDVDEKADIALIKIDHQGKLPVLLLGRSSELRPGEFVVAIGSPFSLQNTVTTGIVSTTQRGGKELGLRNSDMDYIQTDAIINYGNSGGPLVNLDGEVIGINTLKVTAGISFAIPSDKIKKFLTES
Test: SPR (BIACORE T200), huHtrA1-PD-His captured by anti-His, Fab injected
Description: These combination mutants included both a variant light chain and a variant heavy chain. BIACORE™ kinetic analysis was performed (as described below in Section C) using the combination mutants. To determine the binding affinity of selected Fab variants for HtrA1, SPR measurement with a BIACORE™ T200 instrument was performed. […] The sensorgram was recorded and subject to reference and buffer subtraction before evaluating by BIACORE® T200 Evaluation Software (version 2.0). […]
Reported kon values are given for each entry in this list.
quantity-measured: kon

{"binder": "h15H6.v2 Fab (Fab, V domains shown, Tested as Fab; also called parent; parental Fab) VH: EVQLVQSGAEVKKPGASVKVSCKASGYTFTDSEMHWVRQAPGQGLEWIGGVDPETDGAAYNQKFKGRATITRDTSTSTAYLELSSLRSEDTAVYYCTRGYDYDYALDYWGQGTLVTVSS VL: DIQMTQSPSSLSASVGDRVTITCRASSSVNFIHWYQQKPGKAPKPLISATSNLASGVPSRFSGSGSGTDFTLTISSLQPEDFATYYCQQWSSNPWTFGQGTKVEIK", "readout-value": "722000 M⁻¹ s⁻¹"}
{"binder": "combination mutant LC7.HC2 Fab (Fab, V domains shown, Fab) VH: EVQLVQSGAEVKKPGASVKVSCKASGYTFRDSEMHWVRQAPGQGLEWIGGVDPETDGAAYNQKFKGRATITRDTSTSTAYLELSSLRSEDTAVYYCTRGYDYDYALDYWGQGTLVTVSS VL: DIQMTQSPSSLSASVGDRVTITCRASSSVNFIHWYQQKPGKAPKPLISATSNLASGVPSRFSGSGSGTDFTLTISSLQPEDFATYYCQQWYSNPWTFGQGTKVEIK", "readout-value": "1.97e+06 M⁻¹ s⁻¹"}
{"binder": "h15H6.v2 variant LC7 (LC-S92Y) Fab (Fab, V domains shown, Fab-Flag tag fusion from 293T cells) VH: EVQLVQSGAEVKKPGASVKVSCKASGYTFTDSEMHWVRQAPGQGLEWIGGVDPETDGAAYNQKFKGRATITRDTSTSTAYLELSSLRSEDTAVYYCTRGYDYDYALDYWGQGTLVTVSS VL: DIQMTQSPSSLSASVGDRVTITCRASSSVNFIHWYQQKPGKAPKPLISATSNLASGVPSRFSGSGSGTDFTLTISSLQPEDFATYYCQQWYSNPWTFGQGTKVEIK", "readout-value": "137000 M⁻¹ s⁻¹"}
